Test system: CAPAN-1
Assay: Cytotoxicity against human Capan1 cells after 48 hrs by sulforhodamine B assay
Type: functional, cell-based
Details: CAPAN-1, 48 h
pIC50: −log10 of the molar value.
METRIC: pIC50

Task: Give the measured pIC50 of CC(=O)O[C@H]1C(=O)[C@@]2(C)[C@H]([C@H](OC(=O)c3ccccc3)[C@]3(O)C[C@H](OC(=O)[C@H](O)[C@@H](NC(=O)c4ccccc4)c4ccccc4)C(C)=C1C3(C)C)[C@]1(OC(C)=O)CO[C@@H]1C[C@@H]2O .
Output: 8.48

Task: What does the data say about its pIC50? Entry: C=C(C(=O)OCCCC)[C@@H]1CC[C@@](C)(O)[C@@H]2CC[C@](C)(O2)[C@@H](OC(C)=O)CC[C@]2(C)O[C@H]2C1
Output: < 4.30

Task: Look up pIC50 for this compound: C=C(C(=O)OC)[C@H]1CC[C@](C)(O)C(=O)CC/C(C)=C/CC[C@]2(C)O[C@@H]2C1
Output: < 4.30

Data provenance is ChEMBL document CHEMBL4371055.
